Where do the numbers come from? From patent EP4707300A1.

- system: T1, human IL-15 (hIL-15+hIL-15Rα complex), tag on IL-15Rα not stated (human (homo sapiens), UniProt P40933 49-162; Q13261 31-128)
- T1 construct: Co-expressed complex (superagonist) of human IL-15 and human IL-15Rα made in HEK293 cells; also called human IL-15 (IL-15+IL-15Rα complex); IL-15+IL-15Rα complex
- T1 sequence (P40933 49-162, chain 1 of 2): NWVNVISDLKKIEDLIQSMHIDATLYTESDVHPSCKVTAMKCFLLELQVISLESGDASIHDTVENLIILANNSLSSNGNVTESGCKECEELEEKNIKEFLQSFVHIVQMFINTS
- T1 sequence (Q13261 31-128, chain 2 of 2): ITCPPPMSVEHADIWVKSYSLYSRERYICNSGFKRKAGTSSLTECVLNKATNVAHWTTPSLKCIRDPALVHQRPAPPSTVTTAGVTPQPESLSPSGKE
- protocol-text: SPR (Biacore T200), as in Example 2.2
This section presents binders with their documented koff values.
Numbers only; they are read as s⁻¹.

Record excerpt, results attached:
binder	koff / s⁻¹
anti-human IL-15 monoclonal antibody R2H2VH+R22F11VK (antibody, V domains shown, Mutant of R1A3; it was captured by anti-human IgG (Fc) in SPR and detected with anti-human IgG in ELISA, so a human Fc is implied; also called R2H2VH+R22FVK) VH: EVQLVQSGAEVKKPGESLKISCKVSGYFFTTYWIGWVRQMPGKGLEYMGIIYPGDSDTRYSPSFQGQVTISADKSISTAYLQWSSLKASDTAMYYCARGGHWNSFDTWGQGTLVTVSS VL: EIVLTQSPGTLSLSPGERATLSCRASQSVIGSYLAWYQQKPGQAPRLLIYSASKLASGIPDRFSGSGSGTDFTLTISRLEPEDFAVYYCQQHYSTPGTFGQGTKVEIK	0.000204
anti-human IL-15 monoclonal antibody R1A3 (antibody, V domains shown, Found from a fully human Fab phage library) VH: EVQLVQSGAEVKKPGESLKISCKVSGYFFTTYWIGWVRQMPGKGLEYMGIIYPGDSDTRYSPSFQGQVTISADKSISTAYLQWSSLKASDTAMYYCARGGHWNAFDFWGQGTLVTVSS VL: EIVLTQSPGTLSLSPGERATLSCRASQSVSSSYLAWYQQKPGQAPRLLIYGASRRATGIPDRFSGSGSGTDFTLTISRLEPEDFAVYYCQQFDASQTFGQGTKLEISR	0.00038

Request the reported koff associated with anti-human IL-15 monoclonal antibody R4G4VH+R22F11VK (antibody, V domains shown, Mutant of R1A3; it was captured by anti-human IgG (Fc) in SPR and detected with anti-human IgG in ELISA, so a human Fc is implied; also called R4G4VH+R22FVK) VH: EVQLVQSGAEVKKPGESLKISCKVSGYFFTTYWIGWVRQMPGKGLEYMGIIYPGDSDTRYSPSFQGQVTISADKSISTAYLQWSSLKASDTAMYYCARGGHWNAFDIWGQGTLVTVSS VL: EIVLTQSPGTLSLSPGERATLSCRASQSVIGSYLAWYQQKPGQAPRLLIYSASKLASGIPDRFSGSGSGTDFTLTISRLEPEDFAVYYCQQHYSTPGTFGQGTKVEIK 0.000196

Same again, this time with anti-human IL-15 monoclonal antibody R26H10 (antibody, V domains shown, Humanized mutant of R6E11 with a fully human light chain; captured by anti-human IgG (Fc) in SPR and detected with anti-human IgG in ELISA) VH: QVTLKESGPVLVKPTETLTLTCTVSGFSLTTYAVHWIRQPPGKALEWLGVIWGAGSTDYNPSFMSRLTISKDTSKSQVVLTMTNMDPVDTATYYCAKNAAYYVMDYWGQGTTVTVSS VL: EIVLTQSPGTLSLSPGERATLSCRASQSVIYSYLAWYQQKPGQAPRLLIYAASKLASGIPDRFSGSGSGTDFTLTISRLEPEDFAVYYCQQRASYPLTFGQGTKVEIK 0.000236
